Record: IC50 reported on TNKS2 (Homo sapiens, UniProt Q9H2K2).
Sequence (Q9H2K2 whole entry): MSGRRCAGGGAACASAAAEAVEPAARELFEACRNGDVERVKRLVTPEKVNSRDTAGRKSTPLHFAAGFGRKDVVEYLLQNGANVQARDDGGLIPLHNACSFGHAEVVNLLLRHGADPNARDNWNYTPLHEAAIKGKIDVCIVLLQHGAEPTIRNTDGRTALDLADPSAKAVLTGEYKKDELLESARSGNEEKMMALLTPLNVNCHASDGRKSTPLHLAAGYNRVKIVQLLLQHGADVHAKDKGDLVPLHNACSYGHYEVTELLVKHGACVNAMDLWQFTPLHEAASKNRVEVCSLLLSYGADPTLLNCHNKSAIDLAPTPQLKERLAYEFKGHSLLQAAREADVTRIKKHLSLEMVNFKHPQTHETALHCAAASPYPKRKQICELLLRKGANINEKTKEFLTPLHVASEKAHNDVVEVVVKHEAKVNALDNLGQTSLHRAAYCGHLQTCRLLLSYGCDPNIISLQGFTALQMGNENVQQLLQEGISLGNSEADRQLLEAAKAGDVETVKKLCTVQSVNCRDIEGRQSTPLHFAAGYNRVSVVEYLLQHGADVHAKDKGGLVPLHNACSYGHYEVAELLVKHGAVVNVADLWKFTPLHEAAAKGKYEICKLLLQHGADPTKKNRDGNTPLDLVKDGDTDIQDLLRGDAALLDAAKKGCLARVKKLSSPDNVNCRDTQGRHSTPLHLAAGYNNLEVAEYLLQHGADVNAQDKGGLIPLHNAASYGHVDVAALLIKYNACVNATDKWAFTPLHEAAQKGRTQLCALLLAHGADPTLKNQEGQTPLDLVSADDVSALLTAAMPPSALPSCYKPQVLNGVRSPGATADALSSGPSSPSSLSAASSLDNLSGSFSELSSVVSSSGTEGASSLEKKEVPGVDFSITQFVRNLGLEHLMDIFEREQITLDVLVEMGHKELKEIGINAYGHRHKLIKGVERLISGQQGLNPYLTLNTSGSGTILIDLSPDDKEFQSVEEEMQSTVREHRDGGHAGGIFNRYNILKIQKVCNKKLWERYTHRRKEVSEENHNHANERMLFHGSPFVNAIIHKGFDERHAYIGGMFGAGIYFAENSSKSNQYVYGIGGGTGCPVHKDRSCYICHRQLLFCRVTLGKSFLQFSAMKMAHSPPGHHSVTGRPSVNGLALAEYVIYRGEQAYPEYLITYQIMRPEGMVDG

The measured IC50 associated with Cc1c(C(C)(C)O)cnc2c(C(=O)N[C@H]3CC[C@H](C(=O)Nc4ccc(F)cc4Cl)CC3)cnn12 [Example 359] reads > 10 µM

// sample O=C(N[C@H]1CC[C@H](C(=O)Nc2ccc(F)cc2Cl)CC1)c1cnc2ccccn12 [Example 206] , its IC50 was > 10 µM

Record CC(C)n1nc(C(=O)N[C@H]2CC[C@@]3(CCN(c4ccc(F)cc4Cl)C3=O)CC2)c2ccc(Br)cc21 [Example 319] , field IC50: > 10 µM

Lab note: measured IC50 of COCC(C)NC(=O)c1nc[nH]c1C(=O)N[C@H]1CC[C@H](C(=O)Nc2ccc(F)cc2Cl)CC1 (stereo partly shown) [Example 82] was 0.25 µM
